# method summary: chemical genetic growth profiling, strain panel (AID 1159580);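 note: tested at 20 µM; growth read once vehicle control cultures reached saturation at 30 °C; 1 = growth at the plate median or of vehicle wells; lower values mean less growth of the strain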
# assay conditions: S. cerevisiae deletion strains, growth OD, locus YLR403W, strain SFP1, hits give low values
The campaign covered roughly 5,500 compounds. About 2,000 (36%) were called active. Not shown: some 18% with an inconclusive outcome. The list shows a part of the results.
For each entry below, report its normalized growth value.
Number, no unit, nothing else.

Query: Report normalized growth for "CCOC(=O)/C(=N/Nc1c(Cl)cccc1Cl)c1csc(N)n1" please.
Reply: 0.864

Query: Okay, and "Fc1cccc(Cl)c1CSc1nncn1-c1ccc(OCc2ccccc2)cc1" ?
Reply: 0.965

Query: Okay, and "FC(F)(F)c1cccc(NC(=S)Nc2ccccc2)c1" ?
Reply: 0.899

Query: Okay, and "Cc1nn(Cc2ccc(C(=O)Sc3ccc(C(F)(F)F)cn3)o2)c(C)c1Br" ?
Reply: 0.722

Query: Okay, and "O=C(NCCSCc1cccc(C(F)(F)F)c1)Nc1cccc(C(F)(F)F)c1" ?
Reply: 0.999

Query: Okay, and "Cc1c2c(=O)[nH]ncc2c(-c2ccccc2)n1-c1ccc([N+](=O)[O-])cc1" ?
Reply: 0.963

Query: Okay, and "Cn1c(CSCCOc2ccccc2)nnc1SCc1ccc(Cl)cc1Cl" ?
Reply: 1.01

Query: Okay, and CCOC(=O)C1=C(N)OC2=C(C(=O)CC(C)(C)C2)C1c1ccc(Cl)cc1Cl (configuration not stated) ?
Reply: 0.964

Query: Okay, and "COc1ccc(C(=O)CSC2=NCCc3ccccc32)cc1" ?
Reply: 1.01

Query: Okay, and "O=C(NC(=S)Nc1cccc(C(F)(F)F)c1)c1ccc2nonc2c1" ?
Reply: 0.968

Query: Okay, and O=C1CSC(c2cccnc2)N1c1ccc(Cl)cc1Cl (configuration not stated) ?
Reply: 0.937

Query: Okay, and "O=C(NCCSCc1cccc(C(F)(F)F)c1)c1ccc(Cl)cc1" ?
Reply: 0.896

----------
For each entry below, report its normalized growth value.
# method summary: chemical genetic growth profiling, strain panel (AID 1159580)
# assay conditions: S. cerevisiae deletion strains, growth OD, locus YNL153C, strain GIM3, hits give low values
Screen size: about 5,500 compounds; about 2,000 (36%) were called active. Roughly 18% stayed inconclusive and do not appear here. The list shows a part of the results.
Number, no unit, nothing else.

Query: Report normalized growth for C1CCN2CC3CC(CN4CCCCC34)C2C1 (stereo not drawn) please.
Reply: 0.986

Query: Okay, and "CC(C)N(Cc1ccc(N(C)C)cc1)S(=O)(=O)c1cc(Cl)c(Cl)cc1Cl" ?
Reply: 1.03

Query: Okay, and "Clc1cc(Cl)c(Cl)c(-n2cccc2)c1Cl" ?
Reply: 0.933

Query: Okay, and "C1CCN2C[C@@H]3C[C@H](CN4CCCC[C@@H]34)[C@H]2C1" ?
Reply: 1.01

Query: Okay, and "N#Cc1c(N)sc2c1CCCCC2" ?
Reply: 0.953

Query: Okay, and "Nc1ncn([C@@H]2O[C@H](CO)[C@@H](O)[C@H]2O)c(=O)n1" ?
Reply: 1.04

Query: Okay, and CC(N)[C@H](O)c1ccc(O)c(O)c1 (stereo partly drawn) ?
Reply: 0.986

Query: Okay, and CC(C)NCC(O)c1ccc2ccccc2c1 (stereo not drawn) ?
Reply: 1.05

Query: Okay, and "CN[C@H](CC(=O)O)C(=O)O" ?
Reply: 1.03

Query: Okay, and "COc1c2c(cc3c1OCO3)CCN(C)C2" ?
Reply: 1

Query: Okay, and "Cc1oc(S(=O)(=O)N(C)C)cc1C(=O)O" ?
Reply: 1.01

Query: Okay, and "Clc1cc(Cl)cc(-n2cccc2)c1" ?
Reply: 1.01

Query: Okay, and "Cc1occc(=O)c1/C=C/O" ?
Reply: 0.994

----------
# method summary: chemical genetic growth profiling, strain panel (AID 1159580);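 note: tested at 20 µM; growth read once vehicle control cultures reached saturation at 30 °C; 1 = growth at the plate median or of vehicle wells; lower values mean less growth of the strain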
# assay conditions: S. cerevisiae deletion strains, growth OD, locus YMR223W, strain ubp8
Hit rate of the full screen: of about 5,500 compounds, about 2,000 (36%) were called active. Roughly 18% stayed inconclusive and do not appear here. No stated cut-off is given here; in the data, active means normalized growth mostly below about 0.91 (no sharp cut-off); inconclusive means no clear call, values can overlap the other calls; inactive means mostly above about 0.92. This is one part of the list.
Outcome field: choose from Yes = active, No = inactive

Query: Per the records of this test, what outcome belongs to C=CC(C1=CC(=O)C(OC)=CC1=O)c1ccc(O)cc1 (stereo not given) ?
Reply: No

Query: Okay, and CCCCC(CC)CN1CN(CC(CC)CCCC)CC(C)(N)C1 (stereo not given) ?
Reply: Yes

Query: Okay, and CN(C)CCOC(C)(c1ccccc1)c1ccccn1 (stereo not given) ?
Reply: No

Query: Okay, and "C1CCN2C[C@@H]3C[C@H](CN4CCCC[C@@H]34)[C@H]2C1" ?
Reply: No

Query: Okay, and "CC/C(=C(\c1ccccc1)c1ccc(OCCN(C)C)cc1)c1ccccc1" ?
Reply: Yes

Query: Okay, and C=CC(C1=CC(=O)C(OC)=CC1=O)c1ccccc1 (stereo not given) ?
Reply: Yes

Query: Okay, and "O=C(O)CF" ?
Reply: No

Query: Okay, and Nc1nc2c(ncn2C2C[C@H](O)[C@@H](CO)O2)c(=O)[nH]1 (stereo not given in full) ?
Reply: Yes

Query: Okay, and COC(=O)C[C@H]1C(C)(C)C(=O)[C@@H]2CC3=C4CC(=O)O[C@@H](c5ccoc5)[C@]4(C)CCC3[C@@]1(C)C2=O (stereo not given in full) ?
Reply: No

Query: Okay, and "C=C(C)[C@H]1CC=C(C(=O)O)CC1" ?
Reply: No

Query: Okay, and "C=C[C@@H](C1=CC(=O)C(OC)=C(OC)C1=O)c1ccccc1" ?
Reply: Yes

Query: Okay, and CC(C)NCC(O)c1ccc2ccccc2c1 (stereo not given) ?
Reply: No

Query: Okay, and C=CC(C1=CC(=O)C=CC1=O)c1ccccc1 (stereo not given) ?
Reply: No

Query: Okay, and "C1CNCCN1" ?
Reply: No

Query: Okay, and NCC(CC(=O)O)c1ccc(Cl)s1 (stereo not given) ?
Reply: No

Query: Okay, and C1CCN2CC3CC(CN4CCCCC34)C2C1 (stereo not given) ?
Reply: No

Query: Okay, and "COc1ccc(C(Cl)=C(c2ccc(OC)cc2)c2ccc(OC)cc2)cc1" ?
Reply: No

Query: Okay, and "CCN(CC)CCOc1ccc(/C(=C(\Cl)c2ccccc2)c2ccccc2)cc1" ?
Reply: Yes

Query: Okay, and CC(C)(C)NCC(O)c1ccccc1Cl (stereo not given) ?
Reply: No

Query: Okay, and "COc1c2c(cc3c1OCO3)CCN(C)C2" ?
Reply: No

Query: Okay, and CC(=O)O[C@@H]1CC2C(C)(C)C(=O)CC[C@]2(C)C2CC[C@]3(C)C(=CC(=O)O[C@H]3c3ccoc3)[C@@]21C (stereo not given in full) ?
Reply: No

Query: Okay, and "CC(=O)NCCCCCC(=O)O" ?
Reply: No

Query: Okay, and "COC(C)(C)CCC[C@H](C)C/C=C/C(C)=C/C(=O)OC(C)C" ?
Reply: No

Query: Okay, and Nc1ncnc2c1ncn2C1O[C@H](COP(=O)(O)O)[C@@H](O)[C@H]1O (stereo not given in full) ?
Reply: Yes

Query: Okay, and "Nc1ccc(S(=O)(=O)Nc2ccc(Cl)nn2)cc1" ?
Reply: No

----------
# method summary: chemical genetic growth profiling, strain panel (AID 1159580);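 note: tested at 20 µM; growth read once vehicle control cultures reached saturation at 30 °C; 1 = growth at the plate median or of vehicle wells; lower values mean less growth of the strain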
# assay conditions: S. cerevisiae deletion strains, growth OD, locus YNR049C, strain mso1
Hit rate of the full screen: of about 5,500 compounds, about 2,000 (36%) were called active. Another 18% or so got no clear call; they are omitted. Rule as the data show it: active = normalized growth mostly below about 0.91 (no sharp cut-off); inconclusive = no clear call, values can overlap the other calls; inactive = mostly above about 0.92. The list shows a part of the results.
Outcome field: choose from active, inactive

Query: Per the records of this test, what outcome belongs to "CN[C@H](CC(=O)O)C(=O)O" ?
Reply: inactive

Query: Okay, and "O=C(NC(=O)c1c(F)cccc1F)Nc1ccc(Cl)cc1" ?
Reply: inactive

Query: Okay, and "O=C(O)CF" ?
Reply: inactive

Query: Okay, and "CS(=O)(=O)CCCCN=C=S" ?
Reply: active

Query: Okay, and CCCC(C)C1(CC)C(=O)NC(=O)NC1=O (stereo unspecified) ?
Reply: inactive

Query: Okay, and COC(=O)C[C@H]1C(C)(C)C(=O)[C@@H]2CC3=C4CC(=O)O[C@@H](c5ccoc5)[C@]4(C)CCC3[C@@]1(C)C2=O (stereo partly specified) ?
Reply: inactive

----------
For each entry below, report its normalized growth value.
# method summary: chemical genetic growth profiling, strain panel (AID 1159580);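 note: tested at 20 µM; growth read once vehicle control cultures reached saturation at 30 °C; 1 = growth at the plate median or of vehicle wells; lower values mean less growth of the strain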
# assay conditions: S. cerevisiae deletion strains, growth OD, locus YLR058C, strain SHM2, hits give low values
In all, about 5,500 compounds went through this assay and about 2,000 (36%) were called active. About 18% were inconclusive and are not listed. Some of the results follow.
Number, no unit, nothing else.

Query: Report normalized growth for C=CCC1(C(C)CCC)C(=O)N=C(S)NC1=O (stereo unspecified) please.
Reply: 0.988

Query: Okay, and "Oc1c(I)cc(I)c2cccnc12" ?
Reply: 0.0693

Query: Okay, and "COC(C)(C)CCC[C@H](C)C/C=C/C(C)=C/C(=O)OC(C)C" ?
Reply: 1

Query: Okay, and "CC(=O)Oc1ccc(Cl)c2cccnc12" ?
Reply: 0.0497

Query: Okay, and CCCC(C)C1(CC)C(=O)N=C(S)NC1=O (stereo unspecified) ?
Reply: 1

Query: Okay, and "NCCCC[C@H](N[C@@H](CCc1ccccc1)C(=O)O)C(=O)N1CCC[C@H]1C(=O)O" ?
Reply: 0.984
